Biological target: SAP (Homo sapiens, UniProt P02743)
Sequence (P02743 20-223): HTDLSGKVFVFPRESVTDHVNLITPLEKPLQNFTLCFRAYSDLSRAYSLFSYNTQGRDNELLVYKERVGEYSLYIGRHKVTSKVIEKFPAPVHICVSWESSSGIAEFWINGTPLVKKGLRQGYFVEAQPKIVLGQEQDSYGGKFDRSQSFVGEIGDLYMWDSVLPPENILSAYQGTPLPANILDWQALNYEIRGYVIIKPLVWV
Experiment: Inhibition of binding of 125I radiolabelled SAP to Neisseria meningitidis immobilized in microtitre plates
Set-up: 5 μl of radiolabelled SAP in TN; from tissue
Details: compound 2 μM; read-out: Percent inhibition of binding of radiolabelled SAP to immobilized Neisseria meningitidis
property: inhibition at 2 µM (%)
API: value field is a number in %; no unit string.

Example entries and their recorded answers appear below.
[[record]]
compound = "O=C(O)[C@H]1CCCN1C(=O)COc1ccc(OCC(=O)N2CCC[C@@H]2C(=O)O)cc1 [Ro-64-2856]"
numeric_value = 65

[[record]]
compound = "O=C(O)[C@H]1CCCN1C(=O)[C@H]1CC[C@@H](C(=O)N2CCC[C@@H]2C(=O)O)CC1 [Ro-64-2600]"
numeric_value = 73


Request: Look up inhibition at 2 µM: O=C(O)[C@H]1CCCN1C(=O)Cc1cc(O)c(CC(=O)N2CCC[C@@H]2C(=O)O)cc1O [Ro-64-4383]
Result: 76

Request: Look up inhibition at 2 µM: C[C@H](CSSC[C@@H](C)C(=O)N1CCC[C@@H]1C(=O)O)C(=O)N1CCC[C@@H]1C(=O)O [Ro-63-3300]
Result: 68

Request: Look up inhibition at 2 µM: O=C(O)[C@H]1CCCN1C(=O)Cc1ccc(CC(=O)N2CCC[C@@H]2C(=O)O)cc1 [Ro-63-7777]
Result: 64

Request: Look up inhibition at 2 µM: COc1cccc(OCC(=O)N2CCC[C@@H]2C(=O)O)c1OCC(=O)N1CCC[C@@H]1C(=O)O [Ro-64-2845]
Result: 74

Request: Look up inhibition at 2 µM: O=C(O)[C@H]1CCCN1C(=O)CCCCC(=O)N1CCC[C@@H]1C(=O)O [Ro-63-8695]
Result: 61

Request: Look up inhibition at 2 µM: O=C(O)[C@H]1CCCN1C(=O)COc1cccc2c(OCC(=O)N3CCC[C@@H]3C(=O)O)cccc12 [Ro-64-5445]
Result: 72

Request: Look up inhibition at 2 µM: C[C@H](CS)C(=O)N1CCC[C@@H]1C(=O)O [Ro-15-3479]
Result: 42

Request: Look up inhibition at 2 µM: O=C(O)[C@H]1CCCN1C(=O)Cc1ccc(CC(=O)N2CCC[C@@H]2C(=O)O)c2ccccc12 [Ro-64-5607]
Result: 69

Request: Look up inhibition at 2 µM: NCCOP(=O)(O)O [Phosphoethanolamine, reference compound]
Result: 18

Request: Look up inhibition at 2 µM: O=C(O)[C@H]1CCCN1C(=O)Cc1cccc(CC(=O)N2CCC[C@@H]2C(=O)O)c1 [Ro-64-2668]
Result: 64

###

Biological target: SAP (Homo sapiens)
Experiment: Inhibition of binding of 125I radiolabelled SAP to Neisseria meningitidis immobilized in microtitre plates
Design: 5 μl of radiolabelled SAP in TN; from tissue
Conditions: compound 20 μM; read-out: Percent inhibition of binding of radiolabelled SAP to immobilized Neisseria meningitidis
Response key: satisfied means inhibition at 20 µM >= 90%; not satisfied means inhibition at 20 µM < 90%.

Here's what some known entries look like.
[[record]]
molecule = "O=C(O)[C@H]1CCCN1C(=O)Cc1cc(O)c(CC(=O)N2CCC[C@@H]2C(=O)O)cc1O [Ro-64-4383]"
category = "satisfied"

[[record]]
molecule = "O=C(O)[C@H]1CCCN1C(=O)COc1cccc2c(OCC(=O)N3CCC[C@@H]3C(=O)O)cccc12 [Ro-64-5445]"
category = "not satisfied"

[[record]]
molecule = "O=C(O)[C@H]1CCCN1C(=O)[C@H]1CC[C@@H](C(=O)N2CCC[C@@H]2C(=O)O)CC1 [Ro-64-2600]"
category = "satisfied"


Let us examine a further case.
Request: Is inhibition at 20 µM for C[C@H](CSSC[C@@H](C)C(=O)N1CCC[C@@H]1C(=O)O)C(=O)N1CCC[C@@H]1C(=O)O [Ro-63-3300] at or above 90%?
Result: not satisfied
